test-target: recombinant human Nav1.7 (Homo sapiens (Human), UniProt Q15858)
Sequence (Q15858 whole entry): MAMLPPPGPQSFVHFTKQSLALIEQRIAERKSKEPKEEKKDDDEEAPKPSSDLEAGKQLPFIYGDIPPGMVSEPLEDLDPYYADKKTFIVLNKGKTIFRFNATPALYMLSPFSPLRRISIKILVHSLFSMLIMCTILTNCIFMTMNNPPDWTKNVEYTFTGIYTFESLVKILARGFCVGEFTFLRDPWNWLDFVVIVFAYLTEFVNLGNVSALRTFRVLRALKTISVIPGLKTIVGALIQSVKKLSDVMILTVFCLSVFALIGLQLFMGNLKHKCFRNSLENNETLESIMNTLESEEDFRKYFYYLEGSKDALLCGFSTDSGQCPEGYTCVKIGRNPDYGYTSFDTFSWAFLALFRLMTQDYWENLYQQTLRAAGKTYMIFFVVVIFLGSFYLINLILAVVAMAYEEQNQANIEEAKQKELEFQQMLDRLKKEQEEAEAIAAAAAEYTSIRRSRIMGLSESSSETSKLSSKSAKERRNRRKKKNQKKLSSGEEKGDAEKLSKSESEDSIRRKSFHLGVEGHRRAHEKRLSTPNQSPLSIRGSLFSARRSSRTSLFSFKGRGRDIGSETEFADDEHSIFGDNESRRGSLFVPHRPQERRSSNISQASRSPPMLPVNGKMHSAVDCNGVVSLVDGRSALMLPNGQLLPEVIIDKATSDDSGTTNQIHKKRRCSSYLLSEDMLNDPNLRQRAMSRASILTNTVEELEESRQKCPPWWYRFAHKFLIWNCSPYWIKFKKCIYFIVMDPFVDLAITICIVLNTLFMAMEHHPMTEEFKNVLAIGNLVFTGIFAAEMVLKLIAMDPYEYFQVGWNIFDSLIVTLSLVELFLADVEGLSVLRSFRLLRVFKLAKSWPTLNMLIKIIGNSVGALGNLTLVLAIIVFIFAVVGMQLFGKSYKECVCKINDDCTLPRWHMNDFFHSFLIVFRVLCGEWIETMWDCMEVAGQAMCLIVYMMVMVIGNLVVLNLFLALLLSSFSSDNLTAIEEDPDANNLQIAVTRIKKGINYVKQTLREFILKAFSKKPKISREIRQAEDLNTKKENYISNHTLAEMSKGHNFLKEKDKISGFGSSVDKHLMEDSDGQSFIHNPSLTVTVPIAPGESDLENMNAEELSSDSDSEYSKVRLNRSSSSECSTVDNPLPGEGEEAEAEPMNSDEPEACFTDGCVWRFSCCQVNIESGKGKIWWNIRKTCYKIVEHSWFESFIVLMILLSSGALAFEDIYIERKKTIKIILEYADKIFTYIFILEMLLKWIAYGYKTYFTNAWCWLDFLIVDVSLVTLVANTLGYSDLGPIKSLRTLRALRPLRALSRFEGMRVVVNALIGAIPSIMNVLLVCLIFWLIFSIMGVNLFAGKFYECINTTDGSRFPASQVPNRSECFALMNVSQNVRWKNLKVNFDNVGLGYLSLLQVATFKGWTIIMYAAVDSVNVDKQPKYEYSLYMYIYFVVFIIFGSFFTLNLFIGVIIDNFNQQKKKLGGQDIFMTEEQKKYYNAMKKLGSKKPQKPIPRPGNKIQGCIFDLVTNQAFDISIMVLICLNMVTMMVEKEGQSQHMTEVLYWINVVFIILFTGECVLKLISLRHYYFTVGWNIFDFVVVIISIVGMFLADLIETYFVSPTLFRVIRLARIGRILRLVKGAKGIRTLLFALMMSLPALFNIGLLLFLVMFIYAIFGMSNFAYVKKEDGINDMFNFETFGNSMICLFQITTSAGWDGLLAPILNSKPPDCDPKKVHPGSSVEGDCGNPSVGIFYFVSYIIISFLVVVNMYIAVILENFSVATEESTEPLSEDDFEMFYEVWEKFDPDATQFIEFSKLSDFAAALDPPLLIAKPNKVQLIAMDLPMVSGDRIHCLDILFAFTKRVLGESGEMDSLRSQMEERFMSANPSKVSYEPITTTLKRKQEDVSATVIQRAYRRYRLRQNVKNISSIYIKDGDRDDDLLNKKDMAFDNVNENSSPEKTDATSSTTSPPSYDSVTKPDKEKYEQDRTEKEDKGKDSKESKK
test-description: FRET-based membrane potential assay, recombinant human sodium channel Nav1.7
Format: cell-based
condition-description: HEK293 cells stably expressing recombinant human Nav1.7; veratridine + scorpion venom depolarization; read-out: FRET-Membrane Potential Nav1.7 IC50
Procedure: FRET-Based Membrane Potential Assays. Recombinant, Human Sodium Channel, Nav1.7. On the day of the assay, medium was removed by aspiration, and cells were washed with assay buffer [HBSS (Invitrogen, Carlsbad, Calif.) containing 20 mM HEPES (Invitrogen, Carlsbad, Calif.)]. […] Cells were incubated for 40 minutes at room temperature in the dark. […] Fluorescence readings were made using a FLIPR®^TETRA (Molecular Devices, Sunnyvale Calif.) equipped with voltage-sensor probe optics. […]
pIC50: −log10 of the molar value.

- molecule: "CC1(O)CCN(C(=O)CNC(=O)c2ccc3cc(Oc4ccc(C(F)(F)F)cn4)ccc3n2)C1 (stereo not shown)"
  value-prefix: "="
  pIC50: 5.46
- molecule: "CN1CCN(C(=O)c2ccc3cc(Oc4ccc(C(F)F)cn4)ccc3n2)CC1=O"
  value-prefix: "<"
  pIC50: 4.70
- molecule: "O=C(c1ccc2cc(Oc3ccc(C(F)(F)F)cn3)ccc2n1)N1CCC(F)(COc2ccccc2)C1 (stereo not shown)"
  value-prefix: "="
  pIC50: 5.30
- molecule: "COC[C@@H]1CN(C(=O)c2ccc3cc(Oc4ccc(C(F)F)cn4)ccc3n2)CCN1"
  value-prefix: "="
  pIC50: 6.05

###

test-target: recombinant human Nav1.7 (Homo sapiens (Human), UniProt Q15858)
test-description: FRET-based membrane potential assay, recombinant human sodium channel Nav1.7
Assay type: cell-based
condition-description: HEK293 cells stably expressing recombinant human Nav1.7; veratridine + scorpion venom depolarization; read-out: FRET-Membrane Potential Nav1.7 IC50
pIC50: −log10 of the molar value.
Below: a set of entries, each annotated with reported pIC50.
measure: pIC50

- compound: "O=C(c1ccc2cc(Oc3ccc(C(F)(F)F)cn3)ccc2n1)N1CCc2nc[nH]c(=O)c2C1 [Example 342]"
  measure: "pIC50"
  value-prefix: "="
  recorded-measurement: 5.47
- compound: "O=C(c1ccc2cc(Oc3ccc(S(=O)(=O)C(F)(F)F)cc3)ccc2n1)N1CCNCC1 [Example 215]"
  measure: "pIC50"
  value-prefix: "="
  recorded-measurement: 6.09
- compound: "O=C1CCC(NC(=O)c2ccc3cc(Oc4ccc(C(F)(F)F)cn4)ccc3n2)CN1 (centres unmarked) [Example 416]"
  measure: "pIC50"
  value-prefix: "="
  recorded-measurement: 6.15
- compound: "NC1CN(C(=O)c2ccc3cc(Oc4ccc(C(F)(F)F)nc4)ccc3n2)C1 [Example 66]"
  measure: "pIC50"
  value-prefix: "="
  recorded-measurement: 6.05
- compound: "COCC1CN(C(=O)c2ccc3cc(Oc4ccc(C(F)(F)F)cn4)ccc3n2)C1 [Example 60]"
  measure: "pIC50"
  value-prefix: "="
  recorded-measurement: 5.90
- compound: "O=C(c1ccc2cc(Oc3ccc(C(F)(F)F)cn3)ccc2n1)N1CCN(S(=O)(=O)c2cccnc2)CC1 [Example 183]"
  measure: "pIC50"
  value-prefix: "<"
  recorded-measurement: 4.70
- compound: "O=C(NCC(=O)N1CCC(F)C1)c1ccc2cc(Oc3ccc(C(F)(F)F)cn3)ccc2n1 (centres unmarked) [Example 573]"
  measure: "pIC50"
  value-prefix: "="
  recorded-measurement: 6.01
- compound: "O=C(NCC(=O)N1CCS(=O)(=O)C1)c1ccc2cc(Oc3ccc(C(F)(F)F)cn3)ccc2n1 [Example 568]"
  measure: "pIC50"
  value-prefix: "="
  recorded-measurement: 5.49
- compound: "CS(=O)(=O)NC1CCN(C(=O)c2ccc3cc(Oc4ccc(C(F)(F)F)cn4)ccc3n2)CC1 [Example 408]"
  measure: "pIC50"
  value-prefix: "<"
  recorded-measurement: 4.70
- compound: "CC(C)(O)CCNC(=O)c1ccc2cc(Oc3ccc(C(F)(F)F)cn3)ccc2n1 [Example 334]"
  measure: "pIC50"
  value-prefix: "="
  recorded-measurement: 5.46
- compound: "CC(NC(=O)c1ccc2cc(Oc3ccc(C(F)(F)F)cn3)ccc2n1)C(=O)N(C)C (centres unmarked) [Example 579]"
  measure: "pIC50"
  value-prefix: "="
  recorded-measurement: 5.77
- compound: "CO[C@H]1C[C@@H](NC(=O)c2ccc3cc(Oc4ccc(C(F)(F)F)cn4)ccc3n2)C1 [Example 41]"
  measure: "pIC50"
  value-prefix: "="
  recorded-measurement: 5.90
- compound: "COC1CN(C(=O)CNC(=O)c2ccc3cc(Oc4ccc(C(F)(F)F)cn4)ccc3n2)C1 [Example 569]"
  measure: "pIC50"
  value-prefix: "="
  recorded-measurement: 5.92
- compound: "N#Cc1ccc(Oc2ccc3nc(C(=O)N4CCCCCC4)ccc3c2)cc1 [Example 106]"
  measure: "pIC50"
  value-prefix: "="
  recorded-measurement: 5.62
- compound: "O=C(NCC(=O)N1C[C@H](O)[C@@H](O)C1)c1ccc2cc(Oc3ccc(C(F)(F)F)cn3)ccc2n1 [Example 562]"
  measure: "pIC50"
  value-prefix: "<"
  recorded-measurement: 4.70
- compound: "CN1CCN(C(=O)c2ccc3cc(Oc4ccccn4)ccc3n2)CC1 [Example 77]"
  measure: "pIC50"
  value-prefix: "<"
  recorded-measurement: 4.70
- compound: "CC(C)(O)CNC(=O)c1ccc2cc(Oc3ccc(C#N)cc3)ccc2n1 [Example 122]"
  measure: "pIC50"
  value-prefix: "="
  recorded-measurement: 5.60

###

Listed here: items and their measured pIC50.
test-target: recombinant human Nav1.7 (Homo sapiens (Human), UniProt Q15858)
test-description: FRET-based membrane potential assay, recombinant human sodium channel Nav1.7
Format: cell-based
condition-description: HEK293 cells stably expressing recombinant human Nav1.7; veratridine + scorpion venom depolarization; read-out: FRET-Membrane Potential Nav1.7 IC50
Method: FRET-Based Membrane Potential Assays. Recombinant, Human Sodium Channel, Nav1.7. On the day of the assay, medium was removed by aspiration, and cells were washed with assay buffer [HBSS (Invitrogen, Carlsbad, Calif.) containing 20 mM HEPES (Invitrogen, Carlsbad, Calif.)]. […] Cells were incubated for 40 minutes at room temperature in the dark. […] Fluorescence readings were made using a FLIPR®^TETRA (Molecular Devices, Sunnyvale Calif.) equipped with voltage-sensor probe optics. […]
pIC50: −log10 of the molar value.

- compound: "N#Cc1ccc(Oc2ccc3nc(C(=O)N4CCC(N5CCOCC5)CC4)ccc3c2)cc1"
  value-prefix: "="
  pIC50: 5.61
- compound: "O=C(NC[C@@H]1CCCO1)c1ccc2cc(Oc3ccc(C(F)(F)F)cn3)ccc2n1"
  value-prefix: "="
  pIC50: 6.35
- compound: "O=C(c1ccc2cc(Oc3ncccn3)ccc2n1)N1CCNCC1"
  value-prefix: "<"
  pIC50: 4.70
- compound: "O=C(c1ccc2cc(Oc3ccc(C(F)(F)F)cn3)ccc2n1)N1CCC12CNC2"
  value-prefix: "="
  pIC50: 5.25
- compound: "COCCOC1CN(C(=O)c2ccc3cc(Oc4ccc(C(F)(F)F)cn4)ccc3n2)C1"
  value-prefix: "<"
  pIC50: 4.70
- compound: "CO[C@H]1CN(C(=O)c2ccc3cc(Oc4ccc(C(F)(F)F)cn4)ccc3n2)C[C@H]1OC"
  value-prefix: "="
  pIC50: 5.30
- compound: "O=C(NC1CCS(=O)(=O)C1)c1ccc2cc(Oc3ncc(C(F)(F)F)cc3Cl)ccc2n1 (centres unmarked)"
  value-prefix: "="
  pIC50: 5.63
- compound: "O=C(c1ccc2cc(Oc3ccc(C(F)(F)F)cn3)ccc2n1)N1CC(n2cncn2)C1"
  value-prefix: "="
  pIC50: 5.79

###

test-target: recombinant human Nav1.7 (Homo sapiens (Human), UniProt Q15858)
test-description: FRET-based membrane potential assay, recombinant human sodium channel Nav1.7
Assay type: cell-based
condition-description: read-out: FRET-Membrane Potential Nav1.7 IC50
pIC50: −log10 of the molar value.
measure: pIC50

- compound: "CC(C)N1CCN(C(=O)c2ccc3cc(Oc4ccc(C(F)(F)F)cn4)ccc3n2)CC1 [Example 231]"
  value-prefix: "="
  recorded-measurement: 6.11
- compound: "CN(C)C(=O)[C@H](Cc1ccccc1)NC(=O)c1ccc2cc(Oc3ccc(C(F)(F)F)cn3)ccc2n1 [Example 501]"
  value-prefix: "="
  recorded-measurement: 6.13
- compound: "CC(=O)N[C@@H]1CCN(C(=O)c2ccc3cc(Oc4ccc(C(F)(F)F)cn4)ccc3n2)C1 [Example 438]"
  value-prefix: "="
  recorded-measurement: 4.90
- compound: "COCC1(F)CCN(C(=O)c2ccc3cc(Oc4ccc(C(F)(F)F)cn4)ccc3n2)CC1 [Example 618]"
  value-prefix: "="
  recorded-measurement: 5.57
- compound: "CO[C@@H]1CCN(C(=O)c2ccc3cc(Oc4ccc(C(F)(F)F)cn4)ccc3n2)C1 [Example 588]"
  value-prefix: "="
  recorded-measurement: 5.44
- compound: "O=C(NC1CCS(=O)(=O)C1)c1ccc2cc(Oc3ncc(C(F)(F)F)cn3)ccc2n1 (stereo not drawn) [Example 155]"
  value-prefix: "="
  recorded-measurement: 5.27
- compound: "N#Cc1ccc(Oc2ccc3nc(C(=O)NC4CCNC(=O)C4)ccc3c2)cc1 (stereo not drawn) [Example 484]"
  value-prefix: "="
  recorded-measurement: 6.06
- compound: "O=C(c1ccc2cc(Oc3ccc(C(F)(F)F)cn3)ccc2n1)N1CCNCC1C(F)F (stereo not drawn) [Example 25]"
  value-prefix: "="
  recorded-measurement: 5.76
- compound: "O=C(c1ccc2cc(Oc3ccc(C(F)(F)F)cn3)ccc2n1)N1CCC(N2CCC2)C1 (stereo not drawn) [Example 314]"
  value-prefix: "="
  recorded-measurement: 6.66
- compound: "O=C(c1ccc2cc(Oc3ccc(C(F)(F)F)cn3)ccc2n1)N1CCSCC1 [Example 221]"
  value-prefix: "="
  recorded-measurement: 5.55
- compound: "O=C(NCC(O)C(F)(F)F)c1ccc2cc(Oc3ccc(C(F)(F)F)nc3)ccc2n1 (stereo not drawn) [Example 551]"
  value-prefix: "="
  recorded-measurement: 5.56
- compound: "O=C(NCC1COC1)c1ccc2cc(Oc3ccc(C(F)(F)F)cn3)ccc2n1 [Example 482]"
  value-prefix: "="
  recorded-measurement: 6.24
- compound: "CN1CC(NC(=O)c2ccc3cc(Oc4ccc(C(F)F)cn4)ccc3n2)CC1=O (stereo not drawn) [Example 462]"
  value-prefix: "="
  recorded-measurement: 6.02
- compound: "CN1CCC(N(C)C(=O)c2ccc3cc(Oc4ccc(C(F)(F)F)cn4)ccc3n2)CC1=O (stereo not drawn) [Example 529]"
  value-prefix: "="
  recorded-measurement: 4.99
- compound: "CC1(O)CN(C(=O)CNC(=O)c2ccc3cc(Oc4ccc(C(F)(F)F)cn4)ccc3n2)C1 [Example 567]"
  value-prefix: "="
  recorded-measurement: 5.48
- compound: "O=C(c1ccc2cc(Oc3ccc(C(F)(F)F)cn3)ccc2n1)N1CCC(O)C(F)(F)C1 (stereo not drawn) [Example 190]"
  value-prefix: "="
  recorded-measurement: 4.92
- compound: "O=C(c1ccc2cc(Oc3ccc(C(F)(F)F)cn3)ccc2n1)N1CCC[C@H](O)C1 [Example 582]"
  value-prefix: "="
  recorded-measurement: 4.99
- compound: "O=C(NC1CCC(F)(F)C1)c1ccc2cc(Oc3ccc(C(F)F)cn3)ccc2n1 (stereo not drawn) [Example 486]"
  value-prefix: "="
  recorded-measurement: 5.60
- compound: "N[C@@H]1CCN(C(=O)c2ccc3cc(Oc4ccc(C(F)(F)F)cn4)ccc3n2)C[C@H]1F [Example 583]"
  value-prefix: "="
  recorded-measurement: 6.02
- compound: "N#Cc1ccc(Oc2ccc3nc(C(=O)NCCN4CCCCC4)ccc3c2)cc1 [Example 82]"
  value-prefix: "="
  recorded-measurement: 6.65
- compound: "N#Cc1ccc(Oc2ccc3nc(C(=O)N[C@@H]4CCC[C@@H]4O)ccc3c2)cc1 [Example 131]"
  value-prefix: "="
  recorded-measurement: 5.94
- compound: "O=C(c1ccc2cc(Oc3ccc(C(F)(F)F)cn3)ccc2n1)N1CCN2C[C@@H](F)C[C@@H]2C1 [Example 356]"
  value-prefix: "="
  recorded-measurement: 5.47
- compound: "CN(C)CCCNC(=O)c1ccc2cc(Oc3ccc(C#N)cc3)ccc2n1 [Example 85]"
  value-prefix: "="
  recorded-measurement: 6.62
- compound: "N#Cc1ccc(Oc2ccc3nc(C(=O)N[C@@H]4CCS(=O)(=O)C4)ccc3c2)cc1 [Example 160]"
  value-prefix: "="
  recorded-measurement: 6.15
- compound: "N#Cc1ccc(Oc2ccc3nc(C(=O)N[C@@H]4CCOC4)ccc3c2)cc1 [Example 117]"
  value-prefix: "="
  recorded-measurement: 5.65
- compound: "N#Cc1ccc(Oc2ccc3nc(C(=O)Nc4ccc5cn[nH]c5c4)ccc3c2)cc1 [Example 84]"
  value-prefix: "<"
  recorded-measurement: 4.70
- compound: "O=C(c1ccc2cc(Oc3ccc(C(F)F)cn3)ccc2n1)N1CCNCC1C(F)F (stereo not drawn) [Example 430]"
  value-prefix: "="
  recorded-measurement: 5.46
- compound: "O=C(NCC(=O)N1CC[C@@H](O)C1)c1ccc2cc(Oc3ccc(C(F)(F)F)cn3)ccc2n1 [Example 559]"
  value-prefix: "="
  recorded-measurement: 5.52
- compound: "O=C(c1ccc2cc(Oc3ccc(C(F)(F)F)cn3)ccc2n1)N1CCC[C@H]1CO [Example 237]"
  value-prefix: "="
  recorded-measurement: 5.51
- compound: "O=C1C[C@@H](NC(=O)c2ccc3cc(Oc4ccc(C(F)(F)F)cn4)ccc3n2)CCN1 [Example 512]"
  value-prefix: "="
  recorded-measurement: 6.01
- compound: "O=C1NCCN(C(=O)c2ccc3cc(Oc4ccc(C(F)(F)F)cn4)ccc3n2)C1c1ccccc1 (stereo not drawn) [Example 208]"
  value-prefix: "="
  recorded-measurement: 5.52
- compound: "O=C(c1ccc2cc(Oc3ccc(C(F)(F)F)cn3)ccc2n1)N1CCNC(C(F)F)C1 (stereo not drawn) [Example 594]"
  value-prefix: "="
  recorded-measurement: 5.12
- compound: "O=C1CC(NC(=O)c2ccc3cc(Oc4ccc(C(F)(F)F)nc4)ccc3n2)C1 [Example 556]"
  value-prefix: "="
  recorded-measurement: 5.55
